pIC50: −log10 of the molar value.
Kindly find below pIC50 information for CK1ε (Homo sapiens (Human)) taken from the literature.
ENDPOINT NAME: pIC50

1. Cc1nc(-c2ccncc2)sc1C(=O)Nc1cn2nc(-c3c(-c4ccc(F)cc4)nn(C)c3C3CCOCC3)ccc2n1
8.52
2. NC(=O)CN1CCC(n2c(C3CC3)nc(-c3ccc(F)cc3)c2-c2ccc3nc(NC(=O)c4ccnc(F)c4)cn3n2)CC1
7.97
3. Cc1oncc1C(=O)N1CCC(n2cnc(-c3ccc(F)cc3)c2-c2ccc3nc(NC(=O)c4ccnc(F)c4)cn3n2)CC1
9.59
4. Fc1ccc(-c2nc3ccc(N4CCC5(CCCNC5)CC4)nn3c2-c2ccnc3[nH]ccc23)cc1
8.22
5. Cc1nc(-c2ccc(F)cc2)c(-c2ccc3nc(NC(=O)c4cc[nH]c4)cn3n2)n1C
8.24
6. O=C(Nc1cn2nc(-c3c(-c4ccc(F)cc4)nc(C4CC4)n3C3CCN(C(=O)CC(F)(F)F)CC3)ccc2n1)c1ccnc(F)c1
8.00
7. CN(C)c1cc(C(=O)Nc2cn3nc(-c4c(-c5ccc(F)cc5)nc5ccccn45)ccc3n2)ccn1
8.89
